Assay: Inhibition of thioredoxin-conjugated PolyQ-62 protein aggregation expressed in Escherichia coli DH5alpha at 20 uM relative to control
Quick list: inhibition per entry.

Worked examples follow.
CC[C@H](C)[C@H](NC(=O)CNC(=O)[C@@H]1CCCN1C(=O)[C@H](Cc1c[nH]c2ccccc12)NC(=O)[C@H](Cc1c[nH]c2ccccc12)NC(=O)[C@H](CCCCN)NC(=O)[C@H](Cc1c[nH]c2ccccc12)NC(=O)[C@@H](CC(N)=O)NC(=O)[C@H](CO)NC(C)=O)C(=O)N[C@@H](Cc1ccccc1)C(=O)N[C@@H](CC(=O)O)C(N)=O = 80.7%
CC[C@H](C)[C@H](NC(=O)CNC(=O)[C@@H]1CCCN1C(=O)[C@H](Cc1c[nH]c2ccccc12)NC(=O)[C@H](Cc1c[nH]c2ccccc12)NC(=O)[C@H](CCCCN)NC(=O)[C@H](Cc1c[nH]c2ccccc12)NC(=O)[C@H](CC(N)=O)NC(=O)[C@H](CO)NC(C)=O)C(=O)N[C@@H](Cc1ccccc1)C(=O)N[C@H](CC(=O)O)C(N)=O = 77.2%
CC[C@H](C)[C@H](NC(=O)CNC(=O)[C@@H]1CCCN1C(=O)[C@H](Cc1c[nH]c2ccccc12)NC(=O)[C@H](Cc1c[nH]c2ccccc12)NC(=O)[C@H](CCCCN)NC(=O)[C@H](Cc1c[nH]c2ccccc12)NC(=O)[C@H](CC(N)=O)NC(=O)[C@H](CO)NC(C)=O)C(=O)N[C@@H](Cc1ccccc1)C(=O)N[C@@H](CC(=O)O)C(N)=O = 76.7%
CC[C@H](C)[C@H](NC(=O)CNC(=O)[C@@H]1CCCN1C(=O)[C@H](Cc1c[nH]c2ccccc12)NC(=O)[C@H](Cc1c[nH]c2ccccc12)NC(=O)[C@H](CCCCN)NC(=O)[C@@H](Cc1c[nH]c2ccccc12)NC(=O)[C@H](CC(N)=O)NC(=O)[C@H](CO)NC(C)=O)C(=O)N[C@@H](Cc1ccccc1)C(=O)N[C@@H](CC(=O)O)C(N)=O = 41.1%
CC[C@H](C)[C@H](NC(=O)CNC(=O)[C@H]1CCCN1C(=O)[C@H](Cc1c[nH]c2ccccc12)NC(=O)[C@H](Cc1c[nH]c2ccccc12)NC(=O)[C@H](CCCCN)NC(=O)[C@H](Cc1c[nH]c2ccccc12)NC(=O)[C@H](CC(N)=O)NC(=O)[C@H](CO)NC(C)=O)C(=O)N[C@@H](Cc1ccccc1)C(=O)N[C@@H](CC(=O)O)C(N)=O = 25.7%
CC[C@H](C)[C@@H](NC(=O)CNC(=O)[C@@H]1CCCN1C(=O)[C@H](Cc1c[nH]c2ccccc12)NC(=O)[C@H](Cc1c[nH]c2ccccc12)NC(=O)[C@H](CCCCN)NC(=O)[C@H](Cc1c[nH]c2ccccc12)NC(=O)[C@H](CC(N)=O)NC(=O)[C@H](CO)NC(C)=O)C(=O)N[C@@H](Cc1ccccc1)C(=O)N[C@@H](CC(=O)O)C(N)=O = 33.2%
CC[C@H](C)[C@H](NC(=O)CNC(=O)[C@@H]1CCCN1C(=O)[C@H](Cc1c[nH]c2ccccc12)NC(=O)[C@H](Cc1c[nH]c2ccccc12)NC(=O)[C@H](CCCCN)NC(=O)[C@H](Cc1c[nH]c2ccccc12)NC(=O)[C@H](CC(N)=O)NC(=O)[C@H](CO)NC(C)=O)C(=O)N[C@H](Cc1ccccc1)C(=O)N[C@@H](CC(=O)O)C(N)=O = 65.3%
CC[C@H](C)[C@H](NC(=O)CNC(=O)[C@@H]1CCCN1C(=O)[C@H](Cc1c[nH]c2ccccc12)NC(=O)[C@H](Cc1c[nH]c2ccccc12)NC(=O)[C@@H](CCCCN)NC(=O)[C@H](Cc1c[nH]c2ccccc12)NC(=O)[C@H](CC(N)=O)NC(=O)[C@H](CO)NC(C)=O)C(=O)N[C@@H](Cc1ccccc1)C(=O)N[C@@H](CC(=O)O)C(N)=O = 9.9%
CC[C@H](C)[C@H](NC(=O)[C@H](C)NC(=O)[C@@H]1CCCN1C(=O)[C@H](Cc1c[nH]c2ccccc12)NC(=O)[C@H](Cc1c[nH]c2ccccc12)NC(=O)[C@H](CCCCN)NC(=O)[C@H](Cc1c[nH]c2ccccc12)NC(=O)[C@H](CC(N)=O)NC(=O)[C@H](CO)NC(C)=O)C(=O)N[C@@H](Cc1ccccc1)C(=O)N[C@@H](CC(=O)O)C(N)=O = 64.9%

Moving on to another molecule below.
### Prompt Give inhibition for the following molecule: CC[C@H](C)[C@H](NC(=O)[C@@H](C)NC(=O)[C@@H]1CCCN1C(=O)[C@H](Cc1c[nH]c2ccccc12)NC(=O)[C@H](Cc1c[nH]c2ccccc12)NC(=O)[C@H](CCCCN)NC(=O)[C@H](Cc1c[nH]c2ccccc12)NC(=O)[C@H](CC(N)=O)NC(=O)[C@H](CO)NC(C)=O)C(=O)N[C@@H](Cc1ccccc1)C(=O)N[C@@H](CC(=O)O)C(N)=O
### Response 16.3%

###

Assay: Inhibition of thioredoxin-conjugated PolyQ-62 protein aggregation expressed in Escherichia coli DH5alpha at 20 uM relative to control
Endpoint name: inhibition (%)
Numbers only; they are read as %.

Examples with their reported inhibition follow.
Ac-SNWKWWPGAFD-NH2 = 9.9
Ac-SNWKWWP-NH2 = 11.4
Ac-SNAKWWPGIFD-NH2 = -4
Ac-SAWKWWPGIFD-NH2 = 82.2

Let's switch to this substance now.
### Prompt Check the records and state inhibition for Ac-SNWAWWPGIFD-NH2
### Response 78.2
